Each entry below lists one item and its recorded sfGFP reporter fluorescence value.
B1: library; numbered along this chain (parent)
chain: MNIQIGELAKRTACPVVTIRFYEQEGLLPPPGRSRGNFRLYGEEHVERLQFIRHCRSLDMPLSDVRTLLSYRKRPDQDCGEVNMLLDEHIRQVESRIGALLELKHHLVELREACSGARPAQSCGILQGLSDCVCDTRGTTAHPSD

Variants of: B1
TEST_PROTOCOL: sfGFP reporter fluorescence (15 h) (µM FITC); higher = stronger transcriptional activation
DETAILS: library round: Round 0; ligand: 30 µM Zn

MUTATION_NAME: L110E
sfGFP reporter fluorescence: 0.0579
//
MUTATION_NAME: R74A
sfGFP reporter fluorescence: 0.369
//
MUTATION_NAME: G128F
sfGFP reporter fluorescence: 1.2
//
MUTATION_NAME: E112P
sfGFP reporter fluorescence: 0.0561
//
MUTATION_NAME: L110Q
sfGFP reporter fluorescence: 0.0559
//
MUTATION_NAME: C123K
sfGFP reporter fluorescence: 0.0574
//
MUTATION_NAME: E94N
sfGFP reporter fluorescence: 0.659
//
MUTATION_NAME: I90C
sfGFP reporter fluorescence: 0.568
//
MUTATION_NAME: L107E
sfGFP reporter fluorescence: 0.288
//
MUTATION_NAME: M60L L107C G128I
sfGFP reporter fluorescence: 2.98
//
MUTATION_NAME: M60L L107C
sfGFP reporter fluorescence: 3.93
